PROTOCOL_TEXT: gradient 5% acetonitrile 3 min, to 50% in 2 min, to 85% in 15 min, held 3 min, 100 µL/min
EXPERIMENTAL_SETUP: column: Zorbax Extend-C18 2.1 x 50 mm; eluents: water / acetonitrile, 0.1% formic acid
READOUT: RP-LC retention time (s)
Dear colleague, please return just the value in s, with no unit written.

Endpoint output: RP-LC retention time of CN(C)C[C@@H]1CN(c2ncccn2)C[C@H]1NC(=O)NCCc1ccccc1 . Value?
600

CCN1CCN(S(=O)(=O)c2cc(-c3nc(C)cs3)n(CC(=O)N3CCCCC3)c2)CC1 , same question.
675

Also need COc1ccc(OC)c(CNC(=O)c2cccc3c2SCCC3=O)c1 , thanks.
801

Field entry: CC(=O)N1C[C@@H]2CCCN3CCC[C@@H]([C@H]23)[C@H]1CCCC(=O)NCCCN(C)C1CCCCC1
547

Moving on to CCCS(=O)(=O)N1CCc2c(c(-c3nncn3Cc3ccccc3)nn2C)C1
769

Now give it for CCc1cc(C(=O)N2CCN(CC(C)C)CC2)nc2cc(-c3ccccn3)nn12 too.
610

And the next one, COCC1CN(S(=O)(=O)c2cccc(C#N)c2)CC12CCNCC2 (stereo not drawn) ?
609

Further, for CC1Oc2ccc(S(=O)(=O)N3CCC(C(=O)NCc4ccc5c(c4)OCO5)CC3)cc2NC1=O (stereo not drawn) ?
755

Note, next up: COc1ccc(C2CCN(C(=O)Nc3cccc(C(F)(F)F)c3)C2)cc1 (stereo not drawn)
954

Try this molecule too: CC(NC(=O)C1CCCN(C(=O)c2cc3sccc3n2C)C1)C12CC3CC(CC(C3)C1)C2 (stereo not drawn)
1090

Try the molecule COc1ccc2cc(C(=O)N3CCCC(c4nnc(-c5ccccc5F)s4)C3)[nH]c2c1 (stereo not drawn)
918

Ok, now COc1cccc(-c2[nH]ncc2CN2CCC3(CC2)CC(O)CCO3)c1 (stereo not drawn)
576

Input COC(=O)c1cnc2nc(C)ccc2c1Nc1cc(F)ccc1C
689

Please do the same for Cn1nc(C(=O)N2CCOCC2)c2c1CCN(C(=O)CCC(=O)NC1CCCCCC1)C2 as well.
652

And what about the molecule CC(=O)N1CCc2sc(S(=O)(=O)N3CCN(c4ccccc4F)CC3)cc2C1 ?
905

Follow-up item: O=S(=O)(c1cccn2cnnc12)N(Cc1ccc(F)cc1)c1ccc(F)cc1
834

Next entry: CCOC(=O)CNC(=O)NCc1ccc2ncccc2c1
596

What about O=C(c1ccc(F)c(Cl)c1)N1CCC(n2c(-c3ccoc3)nc3cccnc32)C1 (stereo not drawn) ?
735

Moving on to the next molecule: CCC(=O)NCC12CCCC=C1NC(=O)CC2 (stereo not drawn)
597

Another: O=C(Nc1ccccn1)C1(c2cccs2)CCOCC1
745

COc1ccc(OC)c(CNC(=O)C2CCCN(c3ncnc4c3nc3n4CCCCC3)C2)c1 (stereo not drawn) ?
746

// query: Cc1cc(C)c(S(=O)(=O)N2CCCCC2C(=O)N2CCN(c3ccccc3F)CC2)c(C)c1 (stereo not drawn)
1250

# repeat for Cc1ccc(C2=NC(c3ccc([N+](=O)[O-])cc3)SC(N3CCOCC3)=N2)cc1 (stereo not drawn)
642

Repeat for the following molecule: O=C(Nc1ccccc1)N1CCC(n2cnc3ccc(Cl)cc3c2=O)CC1
782

Item: COCCn1ccc2nc(C)c(C(=O)NCc3ccc(C)o3)cc2c1=O
680

And what about the molecule O=C(Nc1ccc(Cl)c(C(F)(F)F)c1)C1CCN(C(=O)C2Sc3ccccc3NC2=O)CC1 (stereo not drawn) ?
948

Note, next up: CCOc1ccc(S(=O)(=O)N2CCC(C(=O)NCc3csc(-c4ccccc4)n3)CC2)cc1
978

CNC(=O)c1ccc(-c2nc3cc(NS(=O)(=O)c4cc(Cl)ccc4OC)ccc3n2C)cc1 ?
671

###

For each record, write down the corresponding RP-LC retention time.
PROTOCOL_TEXT: gradient 5% acetonitrile 3 min, to 50% in 2 min, to 85% in 15 min, held 3 min, 100 µL/min
EXPERIMENTAL_SETUP: column: Zorbax Extend-C18 2.1 x 50 mm; eluents: water / acetonitrile, 0.1% formic acid

Recorded RP-LC retention time for COc1ccccc1-c1csc(NC(=O)c2sc(C)nc2C)n1 , please?
900 s

Try the molecule CCC(=O)N1CCc2cc(-c3ccc(C(=O)N4CCN(C(=O)c5ccco5)CC4)cc3)ccc21
764 s

Further, for Cc1cc(C2CCCN2C(=O)CCc2ccccc2)no1 (configuration not stated) ?
760 s

Same for O=C(NC1CCCCCC1)c1ccc(-c2cncnc2)nc1
764 s

Cc1nn(-c2ccc(Cl)cc2)c(C)c1S(=O)(=O)N1CCC(C(=O)NCc2cccs2)CC1 ?
950 s

Next molecule: O=C(Nc1ccc(CN2CCCCC2)cc1)C1CCCN(c2ncnc3c2nc2n3CCCCC2)C1 (configuration not stated)
1050 s

Also check CCn1c(=O)c(C(=O)NC2CCN(Cc3ccccc3)CC2)nc2cccnc21
606 s

Next up: Cn1nccc1C(=O)NCc1ccc2c(c1)CCN2C(=O)c1ccc(F)cc1
779 s

Proceed to Cc1ccc2nsnc2c1S(=O)(=O)NCCc1c(C)[nH]c2ccccc12
948 s

Now consider O=C(Nc1ccc(F)cc1)C1CC(=O)N(CCc2c[nH]c3ccc(F)cc23)C1 (configuration not stated) and answer again.
785 s

What about this molecule? O=C(NCc1ccc2c(c1)N(C(=O)c1ccccc1)CC2)c1cccs1
814 s

Check CC(C)N1CCn2c(nc3cc(C(=O)NCc4ccc(Br)cc4)ccc32)C1=O too.
761 s

Now give it for CCn1nc(CNC(=O)C(C)Oc2ccccc2OC)c2ccccc21 (configuration not stated) too.
810 s

Moving on to the next molecule: O=C(NCc1cc(F)cc(F)c1)C1CCCN(c2nc3ccsc3c(=O)n2Cc2ccccc2)C1 (configuration not stated)
1050 s

Again, but for CCN1C(=O)c2cccnc2Sc2cc(CNC(=O)c3c(OC)cccc3OC)ccc21
784 s

What do we get for Cc1ccc(Nc2c(-c3ccc(N(C)C)cc3)nc3ccc(Cl)cn23)cc1 ?
818 s

COC(=O)c1cc(OC)c(OC)cc1NC(=O)c1c(C)coc1C , same question.
940 s

Next record, please: COc1ccc(S(=O)(=O)N2CC(F)(F)C[C@H]2c2nnc(C)o2)cc1
788 s

Try this molecule next: Cc1ccccc1Nc1c(-c2ccccc2)nc2ncccn12
759 s

One more molecule: COc1ccc(Cl)cc1NC(=O)CSc1ccc(-c2ccco2)nn1
944 s

Quick one: Cn1cc(C(=O)NCc2ccc3c(c2)OCO3)c(S(=O)(=O)N2CCCCC2)n1
854 s

Proceed to O=C(COc1ccccc1Cl)N1CCN(c2cc(-c3ccccc3)ncn2)CC1
628 s

Next molecule up: O=C(COc1ccc(Cl)cc1)Nc1ccccc1NC(=O)c1cccs1
887 s

Similarly, COc1ccc(Cl)cc1S(=O)(=O)NC1CCCN(c2ccc(=O)[nH]n2)C1 (configuration not stated) ?
698 s

Follow-up entry: Cc1ccc(CNC(=O)c2cccc(CN3C(=O)C4CCCN4C(=O)c4ccccc43)c2)o1 (configuration not stated)
757 s

Can you handle CC(C)c1ccc(OCC(=O)NCCS(=O)(=O)N2CCN(c3ncccn3)CC2)cc1 next?
856 s

Now give it for COc1cc(OC)c(NC(=O)CN2CCC(C(=O)N3CC(C)CC(C)C3)CC2)cc1Cl (configuration not stated) too.
730 s

Quick one: Cc1nc2nc(-c3ccccc3)nn2c(C)c1CC(=O)N1CCCCC1
735 s

Param item: COCC(=O)Nc1nc(-c2ccc3c(c2)NC(=O)C(C)O3)cs1 (configuration not stated)
691 s

What about O=C(O)CCCC(=O)N1C[C@H]2C[C@@H](C1)c1cccc(=O)n1C2 ?
564 s

Same read-out for O=C([C@@H]1C[C@H](Oc2ccccc2)CN1C(=O)c1ccco1)N1CCCC1 ?
603 s

Next up: Cc1ccc(Cn2c(=O)n(CCNC(=O)C3CCCC3)c3ncccc32)cc1
836 s

###

PROTOCOL_TEXT: gradient 5% acetonitrile 3 min, to 50% in 2 min, to 85% in 15 min, held 3 min, 100 µL/min
EXPERIMENTAL_SETUP: column: Zorbax Extend-C18 2.1 x 50 mm; eluents: water / acetonitrile, 0.1% formic acid
# strict inequality: RP-LC retention time < 700 s yields yes (1), everything else yields no (0)

Does COc1ccc(N2CCN(C(=O)c3c(C)sc4ccn(C)c(=O)c34)CC2)cc1 have RP-LC retention time strictly under 700 s?
yes (1)

Next molecule: COc1ccc(N2CC(c3nc(-c4ccccc4F)no3)CC2=O)cc1OC (stereo not drawn)
no (0)

Please do the same for COc1cccc(OCC(=O)Nc2ccc3c(c2)N(C(=O)c2ccco2)CCC3)c1 as well.
no (0)

Please answer likewise for Cc1ccc(-c2nnc(-c3nc(N4CCOCC4)c4ccccc4n3)o2)cc1
no (0)

Entry CCn1cc(CC(=O)NC(C)C)c2cccnc21 please
yes (1)

// query: COCCCNC(=O)c1cc(-c2ccc(OC)cc2)nc2n[nH]c(-c3ccc(OC)cc3)c12
no (0)

Another molecule to check: COC(=O)c1ccccc1NC(=O)N1CCN(Cc2nc(-c3cccc(Cl)c3)oc2C)CC1
no (0)

Similarly, O=C(CSCc1nc2cccnc2n1C1CCCCC1)N1CCN(c2ccccn2)CC1 ?
yes (1)

Would you kindly repeat that for O=C1NCCCn2cc(S(=O)(=O)N3CCCCCC3)cc21 ?
yes (1)

What would you report for COc1cccc(CNC(=O)C2(C)CCCN(C(=O)Nc3ccc(F)cc3)C2)c1 (stereo not drawn) ?
no (0)

What do you get for COc1ccc2[nH]c(=O)c(CCC(=O)NCCN3CCc4ccccc4C3)cc2c1 ?
yes (1)

And the next one, CCc1nnc(-c2cccn2CC(=O)NCc2ccc3c(c2)OCO3)o1 ?
no (0)
